# Test system: SW-620
# Protocol description: NCI tumour cell line growth inhibition, 48 h
The source made the active and inactive calls. Rule as the data show it: active = GI50 up to about 1.1 µM and inactive = higher.
Measured quantity: GI50

The examples below pair each entry with its known result.
1) O=C1/C(=C/c2cccnc2)C(n2cccc2)c2c(Br)sc(Br)c21 (stereo not given); 2.32 µM (inactive)
2) CC(C)N1[C@@H]2CCCC[C@H]2N(C(C)C)P1(=O)C(=O)/C=C/c1ccccc1; 2.58 µM (inactive)
3) CC(C)CNc1nc(N)nc(O)c1NC=O; > 100 µM (inactive)
4) Nc1nc(NNc2cccc(F)c2)cc(=O)[nH]1; 31.2 µM (inactive)
5) BrC1=CC=C2NCCCCCC/N=C3\C=CC(Br)=CC=C3NCCCCCC/N=C\2C=C1; > 25.5 µM (inactive)

Query string: Given COc1nc2c(c(=O)n1C)NC(C(O)C(O)CO)C=N2 (stereo not given) , respond with its GI50.
Result string: > 10 µM (inactive)

Query string: Given COc1c(-c2ccc3c(c2)OCO3)oc2cc3c(c(OC)c2c1=O)OCO3 [MELITERNATIN] , respond with its GI50.
Result string: 25.1 µM (inactive)

Query string: Given CC(=O)OCC1OC(n2c(S)nc(-c3ccccc3)c(C#N)c2=O)C(OC(C)=O)C(OC(C)=O)C1OC(C)=O (stereo not given) , respond with its GI50.
Result string: > 100 µM (inactive)

Query string: Given "COc1cccc(/C=N/NC(N)=O)c1O" , respond with its GI50.
Result string: > 100 µM (inactive)

Query string: Given Cc1coc2c1C(=O)C(=O)c1c-2ccc2c1CCCC2(C)C [TANSHINONE IIA] , respond with its GI50.
Result string: 2.42 µM (inactive)

Values were extracted from ChEMBL document CHEMBL1201862.
